# test.system: T1, Human OX40 protein (hOX40-His) (human, UniProt P43489 29-214)
# T1 construct: Soluble analyte in the SPR assay; also called His-tagged human OX40; not shown: His tag
# T1 sequence: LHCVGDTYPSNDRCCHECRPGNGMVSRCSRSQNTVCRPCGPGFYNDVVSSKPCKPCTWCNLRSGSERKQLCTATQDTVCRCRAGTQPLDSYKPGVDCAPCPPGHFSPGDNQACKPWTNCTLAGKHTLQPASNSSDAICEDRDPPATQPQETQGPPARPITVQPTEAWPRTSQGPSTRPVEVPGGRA
# procedure.summary: SPR, Biacore T200, antibody captured on Protein A chip, hOX40-His as analyte, 1:1 Langmuir fit
# Description: The antibodies were tested for hOX40 binding. The affinity of an antibody was determined by surface plasmon resonance (Biacore T200 biosensor, Biacore, INC, Piscataway N.J.) equipped with pre-immobilized Protein A sensor chips. Anti-hOX40 antibody 9H3-mHvKv-IgG1 (1 μg/mL) were injected into Biacore T200 biosensor at 10 μL/min for 25 seconds to achieve to a desired protein density (about 112 response units (RU)). […] Dissociation was monitored for 300 seconds. […]
Listed here are binders together with their documented koff.
observed.property: koff (s⁻¹)

binder="9H3-H3K1-IgG1 (antibody, V domains shown, Humanized, with human IgG1 constant domains; also called 9H3 humanized antibody H3K1) VH: QVQLVESGGGVVQPGRSLRISCAVSGFSLTSYGVLWVRQAPGKGLEWLGVIWSGGSTDYNAAFISRLTISRDNSKSTVYFQMNSLRAEDTAVYYCAREEFGYWGQGTLVTVSS VL: DIQMTQSPSSLSASVGDRVTITCRASQDINNYLNWYQQKPGGAVKLLIYYTSRLHTGVPSRFSGSGSGTDFTLTISSLQPEDIATYYCQQTNTLPWTFGGGTKLEVKR" measure_unit=s⁻¹ test_result=0.000606
binder="9A4-mHvKv-IgG1 (antibody, V domains shown, Chimeric: mouse 9A4 variable domains with human IgG1 constant domains; also called 9A4 chimeric antibody) VH: EVQLQQFGAELVKPGASVKISCKASGYTFTDYNMDWVKQSHGKSLEWIGDINPNYDSTSYNQKFKGKATLTVDKSSSTAYMELRSLTSEDTAVYYCARGGYGNYVDYFDYWGQGTTLTVSS VL: NIVMTQSPKSMSMSVGERVTLSCKASENVVTYVSWYQQKPEQSPKLLIYGASNRYTGVPDRFTGSGSATDFTLTISSVQAEDLADYHCGQSYSYPYTFGGGTKLEIK" measure_unit=s⁻¹ test_result=0.00669
binder="9H3-H2K2-IgG1 (antibody, V domains shown, Humanized, with human IgG1 constant domains; also called 9H3 humanized antibody H2K2) VH: QVQLVESGGGVVQPGRSLRISCAVSGFSLTSYGVLWVRQAPGKGLEWVAVIWSGGSTDYNAAFISRLTISRDNSKSTVYFQMNSLRAEDTAVYYCAREEFGYWGQGTLVTVSS VL: DIQMTQSPSSLSASVGDRVTITCRASQDINNYLNWYQQKPGGAVKLLIYYTSRLHSGVPSRFSGSGSGTDFTLTISSLQPEDIATYYCQQTNTLPWTFGGGTKLEIKR" measure_unit=s⁻¹ test_result=0.00087
